Tested on: 889142-216-R-J1-PDC complex spheroid viability
Assay: Anticancer human tumor 889142-216-R-J1-PDC patient-derived bladder carcinoma cell line growth inhibition [POLQ]
Settings: curve of first compound; second compound 0.0316 µM
pIC50: −log10 of the molar value.
Measurement name: pIC50

Compound	pIC50
Cn1ncnc1[C@H]1c2n[nH]c(=O)c3cc(F)cc(c23)N[C@@H]1c1ccc(F)cc1 + COC1C(OC(N)=O)C(O)C(Oc2ccc3c(O)c(NC(=O)c4ccc(O)c(CC=C(C)C)c4)c(=O)oc3c2C)OC1(C)C	< 7.00
COc1cccc2c1C(=O)c1c(O)c3c(c(O)c1C2=O)CC(O)(C(=O)CO)CC3OC1CC(N)C(O)C(C)O1 (stereo unspecified) + COC1C(OC(N)=O)C(O)C(Oc2ccc3c(O)c(NC(=O)c4ccc(O)c(CC=C(C)C)c4)c(=O)oc3c2C)OC1(C)C	6.77
O=c1[nH]cc(F)c(=O)[nH]1 + Nc1ccc(C#CCN(C(=O)Cc2ncc(C(F)(F)F)cc2C(F)(F)F)c2ccc(F)cc2)nn1	< 5.00
C#Cc1c(F)ccc2cc(O)cc(-c3ncc4c(N5CC6CCC(C5)N6)nc(OCC56CCCN5CC(F)C6)nc4c3F)c12 (stereo unspecified) + Cc1cccc(N(C)C(=O)C2C(O)CCN2c2nc(C)cc(C(F)(F)F)c2C#N)c1	5.22

# per-item lookup of pIC50; items listed below
1. CNCc1ccc(-c2[nH]c3cc(F)cc4c3c2CCNC4=O)cc1 + Nc1ccc(C#CCN(C(=O)Cc2ncc(C(F)(F)F)cc2C(F)(F)F)c2ccc(F)cc2)nn1
2. Nc1ccn(C2OC(CO)C(O)C2(F)F)c(=O)n1 (stereo unspecified) + Cc1cccc(N(C)C(=O)C2C(O)CCN2c2nc(C)cc(C(F)(F)F)c2C#N)c1
3. C=CCn1c(=O)c2cnc(Nc3ccc(N4CCN(C)CC4)cc3)nc2n1-c1cccc(C(C)(C)O)n1 + Cc1cccc(N(C)C(=O)C2C(O)CCN2c2nc(C)cc(C(F)(F)F)c2C#N)c1
4. COc1ccc([C@@H](O)c2cc(-c3ncnc4cc(N5CCOCC5)ccc34)c(F)cc2Cl)nn1 + Cc1cccc(N(C)C(=O)C2C(O)CCN2c2nc(C)cc(C(F)(F)F)c2C#N)c1
5. O=c1[nH]cc(F)c(=O)[nH]1 + COC1C(OC(N)=O)C(O)C(Oc2ccc3c(O)c(NC(=O)c4ccc(O)c(CC=C(C)C)c4)c(=O)oc3c2C)OC1(C)C
6. CC(=O)O[C@H]1C(=O)[C@@]2(C)[C@H]([C@H](OC(=O)c3ccccc3)[C@]3(O)C[C@H](OC(=O)[C@H](O)[C@@H](NC(=O)c4ccccc4)c4ccccc4)C(C)=C1C3(C)C)[C@]1(OC(C)=O)CO[C@@H]1C[C@@H]2O + COC1C(OC(N)=O)C(O)C(Oc2ccc3c(O)c(NC(=O)c4ccc(O)c(CC=C(C)C)c4)c(=O)oc3c2C)OC1(C)C
7. C=CCn1c(=O)c2cnc(Nc3ccc(N4CCN(C)CC4)cc3)nc2n1-c1cccc(C(C)(C)O)n1 + Nc1ccc(C#CCN(C(=O)Cc2ncc(C(F)(F)F)cc2C(F)(F)F)c2ccc(F)cc2)nn1

["< 5.00", 6.75, "< 6.00", 5.42, "< 5.00", "> 8.02", "< 6.00"]

---

Test system: 889142-216-R-J1-PDC complex spheroid viability
Test: Anticancer human tumor 889142-216-R-J1-PDC cell line growth inhibition [POLQ];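 also: spheroids exposed to compounds for seven days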;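 as to viability, T/C: 100% = DMSO vehicle control viability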
Details: second compound 0.0316 µM; first compound 0.316 µM; stronger effect = lower value
Lab note: class by viability, T/C, see low (below 60%), medium (60% to below 80%), high (80% or more)

As a guide, the following entries are already answered.
Molecule	Label
C#Cc1c(F)ccc2cc(O)cc(-c3ncc4c(N5CC6CCC(C5)N6)nc(OCC56CCCN5CC(F)C6)nc4c3F)c12 (stereo not given) + Cc1cccc(N(C)C(=O)C2C(O)CCN2c2nc(C)cc(C(F)(F)F)c2C#N)c1	high
COc1ccc([C@@H](O)c2cc(-c3ncnc4cc(N5CCOCC5)ccc34)c(F)cc2Cl)nn1 + COC1C(OC(N)=O)C(O)C(Oc2ccc3c(O)c(NC(=O)c4ccc(O)c(CC=C(C)C)c4)c(=O)oc3c2C)OC1(C)C	medium

Moving on to another molecule below.
Field: class (viability, T/C) — entry: COc1cc(C2c3cc4c(cc3C(OC3OC5COC(C)OC5C(O)C3O)C3COC(=O)C23)OCO4)cc(OC)c1O (stereo not given) + COC1C(OC(N)=O)C(O)C(Oc2ccc3c(O)c(NC(=O)c4ccc(O)c(CC=C(C)C)c4)c(=O)oc3c2C)OC1(C)C
low

---

Tested on: 889142-216-R-J1-PDC complex spheroid viability
Experiment: Anticancer human tumor 889142-216-R-J1-PDC cell line growth inhibition [POLQ];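 also: spheroids exposed to compounds for seven days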;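 as to viability, T/C: 100% = DMSO vehicle control viability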
Settings: second compound 0.1 µM; first compound 10 µM; stronger effect = lower value
Protocol: Multicellular complex tumor spheroid response to Polymerase (POL) inhibitors (novobiocin, ART-558, RP6685) in combination with a variety of drugs and investigational agents in selected tumor cell lines The POL inhibitors (novobiocin, ART-558, and RP6685) were evaluated both individually and in combination with standard of care and investigational anticancer small molecules within a complex spheroid model of solid tumors. . […]
Could you please report measured viability, T/C for the items listed next?
One number for each entry, in %.

Compound	Target	Reading unit	viability, T/C
CC1COCCN1c1cc(-c2ccnn2C)c2ccnc(-c3ccn[nH]3)c2n1 (stereo not given) + Nc1ccc(C#CCN(C(=O)Cc2ncc(C(F)(F)F)cc2C(F)(F)F)c2ccc(F)cc2)nn1	889142-216-R-J1-PDC complex spheroid viability	%	24.6
COc1cc(C2c3cc4c(cc3C(OC3OC5COC(C)OC5C(O)C3O)C3COC(=O)C23)OCO4)cc(OC)c1O (stereo not given) + COC1C(OC(N)=O)C(O)C(Oc2ccc3c(O)c(NC(=O)c4ccc(O)c(CC=C(C)C)c4)c(=O)oc3c2C)OC1(C)C	889142-216-R-J1-PDC complex spheroid viability	%	50.4
COc1cccc2c1C(=O)c1c(O)c3c(c(O)c1C2=O)CC(O)(C(=O)CO)CC3OC1CC(N)C(O)C(C)O1 (stereo not given) + COC1C(OC(N)=O)C(O)C(Oc2ccc3c(O)c(NC(=O)c4ccc(O)c(CC=C(C)C)c4)c(=O)oc3c2C)OC1(C)C	889142-216-R-J1-PDC complex spheroid viability	%	0.62
C=CC(=O)N1CCN(c2nc(=O)n(-c3c(C)ccnc3C(C)C)c3nc(-c4c(O)cccc4F)c(F)cc23)C(C)C1 (stereo not given) + Cc1cccc(N(C)C(=O)C2C(O)CCN2c2nc(C)cc(C(F)(F)F)c2C#N)c1	889142-216-R-J1-PDC complex spheroid viability	%	96.2

Count: 7. Required value per item: viability, T/C.
1. COc1ccc([C@@H](O)c2cc(-c3ncnc4cc(N5CCOCC5)ccc34)c(F)cc2Cl)nn1 + Nc1ccc(C#CCN(C(=O)Cc2ncc(C(F)(F)F)cc2C(F)(F)F)c2ccc(F)cc2)nn1
2. CC(C)n1c(=O)n(C)c2cnc3cc(F)c(-c4ccc(OCCCN5CCCCC5)nc4)cc3c21 + Cc1cccc(N(C)C(=O)C2C(O)CCN2c2nc(C)cc(C(F)(F)F)c2C#N)c1
3. Nc1ccn(C2OC(CO)C(O)C2(F)F)c(=O)n1 (stereo not given) + COC1C(OC(N)=O)C(O)C(Oc2ccc3c(O)c(NC(=O)c4ccc(O)c(CC=C(C)C)c4)c(=O)oc3c2C)OC1(C)C
4. CC1COCCN1c1cc(-c2ccnn2C)c2ccnc(-c3ccn[nH]3)c2n1 (stereo not given) + COC1C(OC(N)=O)C(O)C(Oc2ccc3c(O)c(NC(=O)c4ccc(O)c(CC=C(C)C)c4)c(=O)oc3c2C)OC1(C)C
5. COc1cc2cc(C(=O)CCC(=O)O)sc2cc1OC + COC1C(OC(N)=O)C(O)C(Oc2ccc3c(O)c(NC(=O)c4ccc(O)c(CC=C(C)C)c4)c(=O)oc3c2C)OC1(C)C
6. CC1COCCN1c1cc(C2(O)CC3CCC(C2)O3)c2cnn(-c3ccn[nH]3)c2n1 (stereo not given) + Nc1ccc(C#CCN(C(=O)Cc2ncc(C(F)(F)F)cc2C(F)(F)F)c2ccc(F)cc2)nn1
7. CCc1cc2c(N3CCc4c(cc(Cn5ccnc5)cc4-c4cn(C)nc4C(F)(F)F)C3=O)cc(C)nc2c(OC)n1 + COC1C(OC(N)=O)C(O)C(Oc2ccc3c(O)c(NC(=O)c4ccc(O)c(CC=C(C)C)c4)c(=O)oc3c2C)OC1(C)C

1: 39.5; 2: 15.5; 3: 28.4; 4: 25.9; 5: 81.1; 6: 26.1; 7: 58.2

Hi, could you look up viability, T/C for each item in my list?
1. COc1ccc([C@@H](O)c2cc(-c3ncnc4cc(N5CCOCC5)ccc34)c(F)cc2Cl)nn1 + Cc1cccc(N(C)C(=O)C2C(O)CCN2c2nc(C)cc(C(F)(F)F)c2C#N)c1
2. O=c1[nH]cc(F)c(=O)[nH]1 + Cc1cccc(N(C)C(=O)C2C(O)CCN2c2nc(C)cc(C(F)(F)F)c2C#N)c1
3. C#Cc1c(F)ccc2cc(O)cc(-c3ncc4c(N5CC6CCC(C5)N6)nc(OCC56CCCN5CC(F)C6)nc4c3F)c12 (stereo not given) + Nc1ccc(C#CCN(C(=O)Cc2ncc(C(F)(F)F)cc2C(F)(F)F)c2ccc(F)cc2)nn1
4. CCCS(=O)(=O)Nc1ccc(F)c(C(=O)c2c[nH]c3ncc(-c4ccc(Cl)cc4)cc23)c1F + Cc1cccc(N(C)C(=O)C2C(O)CCN2c2nc(C)cc(C(F)(F)F)c2C#N)c1
5. COc1cc2cc(C(=O)CCC(=O)O)sc2cc1OC + Nc1ccc(C#CCN(C(=O)Cc2ncc(C(F)(F)F)cc2C(F)(F)F)c2ccc(F)cc2)nn1
6. COc1ccc([C@@H](O)c2cc(-c3ncnc4cc(N5CCOCC5)ccc34)c(F)cc2Cl)nn1 + COC1C(OC(N)=O)C(O)C(Oc2ccc3c(O)c(NC(=O)c4ccc(O)c(CC=C(C)C)c4)c(=O)oc3c2C)OC1(C)C

40.9
65.1
38.9
48.8
79.2
35.9

Quick one: give me viability, T/C for each item below, same order please.
1. COc1cccc2c1C(=O)c1c(O)c3c(c(O)c1C2=O)CC(O)(C(=O)CO)CC3OC1CC(N)C(O)C(C)O1 (stereo not given) + Cc1cccc(N(C)C(=O)C2C(O)CCN2c2nc(C)cc(C(F)(F)F)c2C#N)c1
2. CC1COCCN1c1cc(C2(S(C)(=N)=O)CC2)nc(-c2ccnc3[nH]ccc23)n1 (stereo not given) + COC1C(OC(N)=O)C(O)C(Oc2ccc3c(O)c(NC(=O)c4ccc(O)c(CC=C(C)C)c4)c(=O)oc3c2C)OC1(C)C
3. CCc1cc2c(N3CCc4c(cc(Cn5ccnc5)cc4-c4cn(C)nc4C(F)(F)F)C3=O)ccnc2c(OC)n1 + Cc1cccc(N(C)C(=O)C2C(O)CCN2c2nc(C)cc(C(F)(F)F)c2C#N)c1

[1.26, 39.8, 87.3]

The measurements presented in this section are drawn from PubChem BioAssay AID1963831.
